target: biotinylated recombinant hSIRPα (extracellular portion) (human, UniProt P78324 31-373, biotin (Sulfo-NHS-LC-LC-Biotin))
Sequence (P78324 31-373): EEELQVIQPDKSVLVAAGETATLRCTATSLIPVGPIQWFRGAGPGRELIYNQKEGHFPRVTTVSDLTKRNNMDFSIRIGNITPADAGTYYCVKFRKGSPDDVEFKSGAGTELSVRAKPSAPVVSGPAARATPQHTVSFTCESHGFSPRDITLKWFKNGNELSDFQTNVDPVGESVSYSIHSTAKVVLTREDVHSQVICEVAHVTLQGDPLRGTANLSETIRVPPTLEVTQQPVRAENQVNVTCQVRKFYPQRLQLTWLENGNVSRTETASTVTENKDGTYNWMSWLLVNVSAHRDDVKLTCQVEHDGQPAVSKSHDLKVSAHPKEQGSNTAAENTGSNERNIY
method notes: BLI
Here the recorded koff is given for each entry.
Please reply with the bare figure in s⁻¹ and do not write the unit itself.

hSIRPα Nb S8 (VHH) VHH: QVQLVESGGGLVQPGGSLRLSCADSEFRLDEYATGWFRQAPGKEREGVACISRSGSNTKYTDSVKGRFTISRDNAKKTVYLQMNSLKPEDTAVYYCAADLTSHYLSCSSYTDYNSWGQGTQVTVSS	0.0009

Now for a further binder.
Task: Given the entry hSIRPα Nb S14 (VHH) VHH: EVQLVESGGGLVQPGGSLRLSCAASGFTANSYRMTWVRQAPGKGLEWVADIGTGNEWKYYPDSVKGRFTISRDAAKNTVYLQMNSLKPEDTAVYYCAKNGAVWYGEDGLDYWGKGTLVTVSS , report its measured koff.
Output: 0.00376

Taken from paper PMC10757926.
